Measured values drawn from ChEMBL document CHEMBL5036316 for this set.

# Tested on: CCRF-CEM
# experiment: Cytotoxicity against human CCRF-CEM cells assessed as cell viability by celltiter-glo luminescent cell viability assay
# Type: cell-based

{"smiles_text": "NC(=O)[C@H](CCc1ccccc1)NC(=O)[C@H](CCC(=O)O)NC(=O)C[C@H](O)[C@H](Cc1ccccc1)NC(=O)OCc1ccccc1", "target_or_system": "CCRF-CEM", "CC50": "> 80 µM"}
